Kindly find below IC50 information for Histone deacetylase 8 (Homo sapiens) taken from the literature.
measured-target: Histone deacetylase 8 (Homo sapiens)
Sequence (Q9BY41 whole entry): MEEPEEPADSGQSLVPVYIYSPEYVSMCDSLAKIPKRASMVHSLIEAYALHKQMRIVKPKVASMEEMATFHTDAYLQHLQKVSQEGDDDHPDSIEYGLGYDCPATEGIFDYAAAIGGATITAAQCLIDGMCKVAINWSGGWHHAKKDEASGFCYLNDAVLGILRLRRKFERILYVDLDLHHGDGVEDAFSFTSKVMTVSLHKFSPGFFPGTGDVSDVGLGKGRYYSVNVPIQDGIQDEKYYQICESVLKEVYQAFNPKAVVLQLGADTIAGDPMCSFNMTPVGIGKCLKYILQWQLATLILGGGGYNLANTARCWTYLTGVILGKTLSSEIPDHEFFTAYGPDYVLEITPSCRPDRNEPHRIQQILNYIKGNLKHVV
Response field label: string, one of 1 (yes) (IC50 strictly below 6 µM) or 0 (no).

{"compound": "O=c1cc(-c2ccccc2)oc2cc(O)cc(O)c12", "cat": "0 (no)"}
{"compound": "COc1ccc(-c2csc(C(=O)NOCCCCCC(=O)NO)n2)cc1", "cat": "1 (yes)"}
{"compound": "COc1ccccc1-c1csc(C(=O)NOCCCCCC(=O)NO)n1", "cat": "1 (yes)"}
{"compound": "COc1ccc(Cn2ccc3ccc(C(=O)NCC(C)O)cc32)cc1 (stereo not drawn)", "cat": "0 (no)"}
{"compound": "COc1ccc(Cn2ccc3ccc(C(=O)NCCO)cc32)cc1", "cat": "0 (no)"}
{"compound": "O=C(NO)c1ccc(/C=N/NC(=O)c2cc(N3CCOCC3)nc(-c3cccc(O)c3)n2)cc1", "cat": "1 (yes)"}
{"compound": "COc1ccc(Cn2ccc3ccc(C(=O)NS(=O)(=O)N(C)C)cc32)cc1", "cat": "0 (no)"}
{"compound": "O=C(CCCCCONC(=O)c1nc(-c2cc3ccccc3o2)cs1)NO", "cat": "1 (yes)"}
{"compound": "COc1ccc(Cn2ccc3ccc(C(=O)c4nccs4)cc32)cc1", "cat": "0 (no)"}
{"compound": "CC12CC3CC(C)(C1)CC(NC(=O)/C=C/c1ccc(C(=O)NO)cc1)(C3)C2", "cat": "1 (yes)"}
{"compound": "O=C(CCCCCONC(=O)c1nc(-c2ccsc2)cs1)NO", "cat": "1 (yes)"}
{"compound": "COc1ccc(Cn2ccc3ccc(C(=O)NS(C)(=O)=O)cc32)cc1", "cat": "0 (no)"}
{"compound": "O=C(NO)c1ccc(CN2C(=O)C3=C(CCN(Cc4cccc(Cl)c4)C3)N3CCN=C23)cc1", "cat": "1 (yes)"}
{"compound": "O=C(CCCCCn1c(=O)c(-c2ccc(Cl)cc2Cl)cc2cnc(NC3CC3)nc21)NO", "cat": "1 (yes)"}
{"compound": "O=C(CCCCCONC(=O)c1nc(-c2ccc(C(F)(F)F)cc2)cs1)NO", "cat": "1 (yes)"}
{"compound": "COc1cc(OC)c(/C=C/S(=O)(=O)Cc2ccc(OC)c(NCC(=O)O)c2)c(OC)c1", "cat": "0 (no)"}
{"compound": "COc1ccc(Cn2ccc3ccc(C(=O)C(F)(F)F)cc32)cc1", "cat": "0 (no)"}
{"compound": "O=C(CCCCCONC(=O)c1nc(-c2ccc(F)cc2)cs1)NO", "cat": "0 (no)"}
{"compound": "COc1ccc(Cn2ccc3ccc(NC(=O)c4ccccn4)cc32)cc1", "cat": "0 (no)"}
{"compound": "COc1ccc(Cn2ccc3ccc(-c4nn[nH]n4)cc32)cc1", "cat": "0 (no)"}
{"compound": "O=C(NO)c1ccc(CNC(=O)[C@@H]2Cc3c([nH]c4ccccc34)[C@@H](c3ccc(Cl)cc3)N2CC2CC2)cc1", "cat": "0 (no)"}
{"compound": "O=C(CCCCCONC(=O)c1nc(-c2ccc(N3CCCC3)cc2)cs1)NO", "cat": "1 (yes)"}
